# IC50 values compiled below
# testedTarget: GlyT1 (Homo sapiens, UniProt P48067)
# Construct: expressed in transfected cells
# Sequence (P48067 whole entry): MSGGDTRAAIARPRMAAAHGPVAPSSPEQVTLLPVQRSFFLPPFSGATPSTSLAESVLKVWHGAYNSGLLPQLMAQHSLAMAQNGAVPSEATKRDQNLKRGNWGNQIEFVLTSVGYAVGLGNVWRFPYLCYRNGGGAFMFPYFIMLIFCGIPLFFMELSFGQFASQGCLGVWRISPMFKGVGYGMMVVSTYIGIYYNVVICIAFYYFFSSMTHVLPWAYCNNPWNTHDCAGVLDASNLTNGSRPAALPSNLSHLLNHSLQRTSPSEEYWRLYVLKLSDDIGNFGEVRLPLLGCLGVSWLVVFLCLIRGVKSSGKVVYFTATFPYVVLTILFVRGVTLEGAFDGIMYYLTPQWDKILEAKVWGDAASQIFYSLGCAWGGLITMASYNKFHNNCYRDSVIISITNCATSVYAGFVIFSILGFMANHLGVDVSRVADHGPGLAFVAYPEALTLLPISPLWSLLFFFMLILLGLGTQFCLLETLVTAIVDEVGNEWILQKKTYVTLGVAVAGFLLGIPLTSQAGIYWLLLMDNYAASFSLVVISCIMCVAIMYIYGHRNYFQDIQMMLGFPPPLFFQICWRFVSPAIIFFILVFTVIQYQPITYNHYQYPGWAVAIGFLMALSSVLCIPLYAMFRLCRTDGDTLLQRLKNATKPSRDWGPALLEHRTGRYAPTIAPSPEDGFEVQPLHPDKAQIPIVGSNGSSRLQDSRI
# assayProtocol: Glycine Transporter 1 (GlyT1) uptake assay, scintillation proximity assay of [14C]-glycine uptake
# Assay type: cell-based
# protocolConditions: [14C]-glycine uptake; read-out: GlyT1 (pIC50) (converted)
# Protocol: Glycine Transporter 1 (GlyT1) Uptake Assay HEK293 cells stably expressing hGlyT1c were plated onto 96-well Cytostar plates at a density of 4.5×10^4 cells per well in 100 μL of growth media (DMEM containing 10% fetal bovine serum) and incubated overnight in a 37° C., 10% CO2 incubator. […] Plates were then read on a MicroBeta plate counter (Perkin Elmer). Dose-response data for tested compounds were analyzed and curves were fit using a four parameter logistic fit to determine IC50 values. […]

For orientation, consider the following solved cases.
[ask] Please give the measured IC50 for this compound: COc1c(C#N)ccc(C2(F)CCC2)c1C(=O)N1CC(c2ccc(C#N)cc2)C1 [Example 104]
[reply] 0.1 to 1 µM

[ask] Could you do the same for COc1c(C#N)ccc(OCC2CC2)c1C(=O)N1CC(c2ccc(C#N)cc2)C1 [Example 173] , please?
[reply] < 0.1 µM

[ask] Could you do the same for COc1c(S(C)(=O)=O)ccc(O[C@@H](C)C(F)(F)F)c1C(=O)N1CC(Oc2ccc(C(F)(F)F)cn2)C1 [Example 61] , please?
[reply] 0.1 to 1 µM

[ask] Could you do the same for COc1c(S(C)(=O)=O)ccc(OCC(F)(F)F)c1C(=O)N1CC(c2ccc3ncoc3c2)C1 [Example 247] , please?
[reply] < 0.1 µM

[ask] Could you do the same for COc1c(S(C)(=O)=O)ccc(OCC(C)(C)C)c1C(=O)N1CC(Oc2c(F)cc(F)cc2F)C1 [Example 240] , please?
[reply] 0.1 to 1 µM

***
[ask] Please give the measured IC50 for this compound: C[C@H](Oc1ccc(C#N)c(Cl)c1C(=O)N1CC(c2ccc(F)c(F)c2)C1)C(F)(F)F [Example 55]
[reply] 0.1 to 1 µM

[ask] Could you do the same for COc1c(S(C)(=O)=O)ccc(O[C@@H](C)C(F)(F)F)c1C(=O)N1CC(Oc2ccc(C(F)(F)F)cc2)C1 [Example 202] , please?
[reply] < 0.1 µM

[ask] Could you do the same for COc1c(S(C)(=O)=O)ccc(OC(C)C)c1C(=O)N1CC(c2ccc(C(F)(F)F)cn2)C1 [Example 213] , please?
[reply] 0.1 to 1 µM
